// data source = PubChem BioAssay AID651549

Experiment: GAPDH and PEG-3 promoter luciferase suppression – cell-based, luminescence, set 2, counter-screen for PEG-3 promoter inhibitor project, dose response (AID 651549)
Conditions: HeLa PEG-Prom-luciferase or GAPDH-reporter, 6/24 h, PEG-3, run 1, 6 h
Calls of active or inactive are those of the source.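 Rule for the calls: active = compounds blocking the PEG3 reporter with IC50 up to 10 µM at either incubation, yet sparing the GAPDH control reporter; inactive = the rest.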
Value Type: IC50

Example entries begin here.
NS(=O)(=O)c1ccc(CCNc2nn3c(-c4ccc(F)c(Cl)c4)cnc3s2)cc1
inactive
Cc1c(CN2CCC(CO)(CCOc3ccccc3)CC2)[nH]c2c(Cl)cccc12
inactive
O=C(Nc1cccc(-c2ccc(N3CCCCC3)nn2)c1)C(F)(F)F
5.36 µM
COc1ccc(-n2cc(-c3ccccc3)c3c(N4CCOCC4)ncnc32)cc1
inactive

Query block: Check the records and state IC50 for COc1ccc(Nc2ncnc3ccc(Br)cc23)c(OC)c1
Result block: 1.05 µM

Query block: Check the records and state IC50 for Cn1c(Cl)cnc1C1CC(=O)c2cc(Cl)ccc2O1 (stereo not given)
Result block: inactive

Query block: Check the records and state IC50 for O=C(c1ccco1)N1CCN(C(c2ccccc2Cl)c2nnnn2Cc2cccs2)CC1 (stereo not given)
Result block: > 99 µM (inactive)

Query block: Check the records and state IC50 for CC(=O)c1sc2c(c1OC(=O)c1ccc(Cl)cc1Cl)c(=O)n(-c1ccccc1)c(=S)n2-c1ccccc1
Result block: > 99 µM (inactive)

Query block: Check the records and state IC50 for COCCn1c(C)cc(C(=O)COc2ccc(C)nc2[N+](=O)[O-])c1C
Result block: inactive

###

I'd be grateful if you could share measured pIC50 for these entries.
Assay: GAPDH and PEG-3 promoter luciferase suppression – cell-based, luminescence, set 2, counter-screen for PEG-3 promoter inhibitor project, dose response (AID 651549)
Settings: HeLa PEG-Prom-luciferase or GAPDH-reporter, 6/24 h, GAPDH, run 1, 24 h
pIC50 here is simply -log10 of the concentration when that concentration is written in mol/L.

Query block: Check the records and state pIC50 for CS(=O)(=O)c1ccc(-c2cn3cc(C(=O)O)ccc3n2)cc1
Result block: 5.47

Query block: Check the records and state pIC50 for Cn1c(Cl)cnc1C1CC(=O)c2cc(Cl)ccc2O1 (stereo not given)
Result block: 5.04

Query block: Check the records and state pIC50 for O=C(O)c1ccc2nc(-c3ccccc3)sc2c1
Result block: 6.14

Query block: Check the records and state pIC50 for CC1CCN(c2nc3ccc(C(=O)O)cc3s2)CC1
Result block: 5.67

Query block: Check the records and state pIC50 for O=C(Nc1ccccc1C(=O)Nc1nnc(C(F)(F)F)s1)c1ccccc1
Result block: 5.15

###

Experiment: GAPDH and PEG-3 promoter luciferase suppression – cell-based, luminescence, set 2, counter-screen for PEG-3 promoter inhibitor project, dose response (AID 651549)
Conditions: HeLa PEG-Prom-luciferase or GAPDH-reporter, 6/24 h, GAPDH, run 1, 24 h
Active and inactive are the calls of the source.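 The calls were made as follows: active = compounds blocking the PEG3 reporter with IC50 up to 10 µM at either incubation, yet sparing the GAPDH control reporter; inactive = the rest.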
The reply should name one outcome from 1 (active), -1 (inactive)

Query block: Please share the test call associated with CC(=O)OC1(C)CC(C)C(=O)C(C(O)CC2CC(=O)NC(=O)C2)C1 (configuration not stated) .
Result block: 1

Query block: Please share the test call associated with Cc1cccc(NC(=O)c2oc3ccc(S(=O)(=O)N4CCOCC4)cc3c2C)c1C .
Result block: 1

Query block: Please share the test call associated with CC(=O)c1cccc(-c2ccnc3c2CC(C(=O)Nc2cccc(NS(C)(=O)=O)c2)O3)c1 (configuration not stated) .
Result block: 1

Query block: Please share the test call associated with COc1ccc(CC2C(=O)NC(C)C(=O)N(C)C3C(=O)N(C)C(Cc4ccc(O)c(c4)Oc4ccc(cc4)C3O)C(=O)NC(C)C(=O)NC(C)C(=O)N2C)cc1 (configuration not stated) .
Result block: 1

Query block: Please share the test call associated with O=C(COc1ccc2c(c1)CCC2)Nc1ccccn1 .
Result block: 1

Query block: Please share the test call associated with Cc1cc2cc(CCNC(=O)C(=O)c3c[nH]c4ccccc34)c(=O)[nH]c2cc1C .
Result block: 1

Query block: Please share the test call associated with COc1cc2nc(CN3CC=C(c4ccccc4)CC3)[nH]c(=O)c2cc1OC .
Result block: -1

Query block: Please share the test call associated with CN1CCC2(CC1)N=C(c1ccc(F)cc1)C(=S)N2C(=O)c1ccc(C(C)(C)C)cc1 .
Result block: -1

Query block: Please share the test call associated with Cc1cc(C)cc(NS(=O)(=O)c2ccc3[nH]cc(C(=O)NCc4ccco4)c(=O)c3c2)c1 .
Result block: 1

Query block: Please share the test call associated with Cc1ccc(S(=O)(=O)NC(CC(C)C)C(=O)NCC(c2ccco2)N2CCCCC2)cc1 (configuration not stated) .
Result block: -1

Query block: Please share the test call associated with NS(=O)(=O)c1ccc(CCNc2nn3c(-c4ccc(F)c(Cl)c4)cnc3s2)cc1 .
Result block: 1

Query block: Please share the test call associated with CCn1cc(C(=O)NCc2ccco2)c(=O)c2cc(S(=O)(=O)N3CC(C)CC(C)C3)ccc21 (configuration not stated) .
Result block: 1

###

Experiment: GAPDH and PEG-3 promoter luciferase suppression – cell-based, luminescence, set 2, counter-screen for PEG-3 promoter inhibitor project, dose response (AID 651549)
Conditions: HeLa PEG-Prom-luciferase or GAPDH-reporter, 6/24 h, PEG-3, run 1, 6 h
The source made the active and inactive calls.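 The calls were made as follows: active = compounds blocking the PEG3 reporter with IC50 up to 10 µM at either incubation, yet sparing the GAPDH control reporter; inactive = the rest.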
Value Type: IC50

CC(C)(C)c1ccc(Cn2c(=O)cnc3ccccc32)cc1
3.47 µM
COc1ccc(CC2C(=O)NC(C)C(=O)N(C)C3C(=O)N(C)C(Cc4ccc(O)c(c4)Oc4ccc(cc4)C3O)C(=O)NC(C)C(=O)NC(C)C(=O)N2C)cc1 (stereo unspecified)
< 1 µM
CC(=O)OC1CC2(O)C3CCC4CC(O)CCC4(C)C3CCC2(C)C1C1=CC(=O)OC1 (stereo unspecified)
> 99 µM (inactive)
O=C(O)CSCC(=O)Nc1ccc(C2CCCCC2)cc1
5.56 µM
Cc1cccc(NC(=O)c2nc(S(=O)(=O)Cc3ccccc3)ncc2Cl)c1
inactive
COc1cc2nc(CN3CC=C(c4ccccc4)CC3)[nH]c(=O)c2cc1OC
inactive
Cc1oc(-c2ccc3c(c2)OCCO3)cc1C(=O)O
7.66 µM
CCc1ccn2cc(-c3ccc4c(c3)OCO4)nc2c1
2.12 µM

Query block: Check the records and state IC50 for O=C(COc1ccc2c(c1)CCC2)Nc1ccccn1
Result block: 2.41 µM

Query block: Check the records and state IC50 for COc1ccc2[nH]c(=O)c(CN(Cc3cccnc3)S(=O)(=O)c3ccccc3F)cc2c1
Result block: > 99 µM (inactive)

Query block: Check the records and state IC50 for CC(CCc1ccccc1)NC(=O)COC(=O)c1ccc(S(C)(=O)=O)c([N+](=O)[O-])c1 (stereo unspecified)
Result block: inactive

Query block: Check the records and state IC50 for Cc1nc2c(-c3ccc(Cl)cc3)c(C)[nH]n2c(=O)c1Cc1ccccc1
Result block: > 99 µM (inactive)

Query block: Check the records and state IC50 for CCC(c1nnnn1-c1ccc2c(c1)OCCO2)N1CCC(n2c(=O)[nH]c3ccccc32)CC1 (stereo unspecified)
Result block: inactive

Query block: Check the records and state IC50 for Cc1ccc(S(=O)(=O)NC(CC(C)C)C(=O)NCC(c2ccco2)N2CCCCC2)cc1 (stereo unspecified)
Result block: inactive

Query block: Check the records and state IC50 for O=C(O)c1ccc2nc(-c3ccccc3)sc2c1
Result block: 7.05 µM

Query block: Check the records and state IC50 for Cc1cc(C(=O)Nc2cccc(C(=O)O)c2)oc1C
Result block: inactive
